Dear all, this message contains Ki results, target or system UniProt P61964.
property name: Ki (nM)

Below are worked cases with known answers.
O=C(NC1CCOC1)c1c(O)c(NS(=O)(=O)c2cc(Br)ccc2O)cc(C2CC2)c1F (centres unmarked) = 2990
CNC(=O)c1cc(OC(F)(F)F)cc(NS(=O)(=O)c2cc(Br)ccc2O)c1O = 410

a = O=C(NCCO)c1c(O)c(NS(=O)(=O)c2cc(Br)ccc2O)cc(C2CC2)c1F
b = CNC(=O)c1cc(OC(F)(F)F)cc(NS(=O)(=O)c2cc(Br)cc(Cl)c2O)c1O
(Q) Select the item with the higher value of Ki from the options a and b listed. Reply with the label of the item you choose.
(A) a

A = CCN(CC)CCS(=O)(=O)c1cc(Cl)cc(NS(=O)(=O)c2cc(Br)ccc2OC)c1
B = COc1ccc(Br)cc1S(=O)(=O)Nc1cc(C2CC2)cc(C(=O)O)c1O
(Q) Lab notebook, comparison: A versus B , higher Ki goes to which? State the label of the item chosen.
(A) A
(A: 20600 nM, B: 1940 nM)

I = COc1ccc(Br)cc1S(=O)(=O)Nc1cc(Cl)cc(C(=O)N2CCOCC2)c1O
II = CC(NC(=O)c1cc(OC(F)(F)F)cc(NS(=O)(=O)c2cc(Br)cc(Cl)c2O)c1O)C(N)=O (centres unmarked)
(Q) Select one: I or II . Criterion: greater recorded Ki. Provide the label of your selected option as the answer.
(A) I

====

As an illustration, consider measured pKi for molecules on WDR5 (Homo sapiens, UniProt P61964).
pKi: −log10 of the molar value.
property name: pKi

a = O=C(NCCN1CCOCC1)c1cc(Cl)cc(NS(=O)(=O)c2cc(Br)ccc2O)c1O [Example J19]
b = COc1cc(Cl)c(Br)cc1S(=O)(=O)Nc1cc(Cl)cc(C(=O)O)c1O [Example J7]
(Q) Lab note: check whether a or b has the lower measured pKi. Respond using the label that marks the chosen record.
(A) b

====

- tgt: WDR5 (Homo sapiens, UniProt P61964)
- assay remarks: Competition-based fluorescence polarization anisotropy assay
- condition parameters: binding to WDR5; displacement of FITC-labeled small molecule probe (analogous to Example J2 or HCH-25) or peptide probe FITC-AHx-SEEEIDVVSV; pH 6.0; Ki converted from IC50
- Procedure: Compounds of the present invention were assessed for their ability to bind to WDr5 using a competition-based fluorescence polarization anisotropy assay, similar to the method previously described. […] Fluorescence polarization measurements were performed in 384-well plates (Greiner Bio One) using a Cytation 3 plate reader (BioTek). Fluorescein isothiocyanate (FITC)-labeled peptide probe ([…]) was purchased from GenScript USA Inc and used without further purification. […]
property name: Ki (nM)

O=C(NCCCO)c1cc(C2CC2)cc(NS(=O)(=O)c2cc(Br)ccc2O)c1O [Example J91] = 940

P = CNC(=O)c1cc(Cl)cc(NS(=O)(=O)c2cc(Br)ccc2O)c1O [Example J14]
Q = N#CC1(c2cc(NS(=O)(=O)c3cc(Br)ccc3O)c(O)c(C(=O)NCC3CCCO3)c2)CCC1 (centres unmarked) [Example J220]
R = O=C(NCCN1CCOCC1)c1cc(C2CC2)cc(NS(=O)(=O)c2cc(Br)ccc2O)c1F [Example J143]
S = O=S(=O)(Nc1cc(C2CC2)cc(S(=O)(=O)C2CCCO2)c1)c1cc(Br)ccc1O (centres unmarked) [Example S15-2]
(Q) # rank_down: sort by Ki, max first Output spec: a listing of the labels in the requested order.
(A) S, R, Q, P
